compounds and their reported pEC50
target: cloned human 5-HT1A receptors (Homo sapiens, UniProt P08908); assay: 35S-GTPγS binding assay, 5-HT1A function; conditions: agonist potency
Field pEC50 (float): negative decimal logarithm of the concentration in molar.

Look over these answered cases.
NC(=O)c1cccc2c1CC(N(CCCc1c[nH]c3ccc(F)cc13)C1CCC1)CO2 (single isomer, unassigned; (+)) [Compound 134b]
6.24
CC(C)NC(=O)c1cccc2c1CC(N(CCCc1c[nH]c3c(F)cc(F)cc13)C1CCC1)CO2 (centres unmarked)
6.54

# input I'd like to know its pEC50. The compound in question is COc1cccc2c1CC(N(CCCc1c[nH]c3ccc(F)cc13)C1CCCC1)CO2 (centres unmarked)
# output 5.23

# input Please look up its pEC50: NC(=O)c1ccc(F)c2c1CC(NCCCc1c[nH]c3ccc(F)cc13)CO2 (centres unmarked) [Compound 1]
# output 5.30

###

Target: 5-HT1A receptor (Homo sapiens, UniProt P08908)
Sequence (P08908 1-422): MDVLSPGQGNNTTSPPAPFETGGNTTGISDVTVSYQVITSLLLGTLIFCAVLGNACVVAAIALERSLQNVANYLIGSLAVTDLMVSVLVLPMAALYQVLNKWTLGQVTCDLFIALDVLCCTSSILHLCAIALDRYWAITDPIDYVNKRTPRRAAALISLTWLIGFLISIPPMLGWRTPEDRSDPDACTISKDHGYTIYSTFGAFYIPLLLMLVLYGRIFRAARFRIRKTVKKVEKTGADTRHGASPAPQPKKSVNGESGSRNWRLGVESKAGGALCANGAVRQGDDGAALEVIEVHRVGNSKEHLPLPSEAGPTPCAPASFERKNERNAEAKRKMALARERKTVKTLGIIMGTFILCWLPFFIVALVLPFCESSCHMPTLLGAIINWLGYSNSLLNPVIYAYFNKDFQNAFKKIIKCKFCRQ
Experiment: cAMP accumulation assay, 5-HT1A function
Type: cell-based
Conditions: in brackets after EC50 or IC50; read-out: 5-HT1A Function cAMP (Emax)
Recorded measurements of Emax, one per entry
Number in %, nothing else.

The examples below pair each entry with its known result.
CCN(CCCc1coc2ccccc12)C1COc2cccc(OC)c2C1 (centres unmarked)
90.5
CCN(CCCCc1c[nH]c2ccc(F)cc12)C1COc2c(F)ccc(C(N)=O)c2C1 (centres unmarked)
0
COC(=O)c1ccc(F)c2c1CC(NCCCCc1c[nH]c3ccc(F)cc13)CO2 (centres unmarked)
91.5
NC(=O)c1ccc(F)c2c1CC(N(CCCCc1c[nH]c3ccc(F)cc13)C1CCC1)CO2 (centres unmarked)
0
NC(=O)c1ccc(F)c2c1OCC(N(CCCCc1c[nH]c3ccc(F)cc13)CC1CC1)C2 (centres unmarked)
64
CCN(CCCc1csc2ccccc12)C1COc2cccc(OC)c2C1 (centres unmarked)
93.5

# input Can you look up the measured Emax of COc1cccc2c1CC(N(CCCCc1c[nH]c3ccc(F)cc13)C1CCC1)CO2 (centres unmarked) for me?
# output 61

# input Query (molecule): NC(=O)c1ccc(F)c2c1CC(N(CCCc1c[nH]c3c(Cl)cccc13)CC1CC1)CO2 (centres unmarked) ; field requested: Emax
# output 0

###

target: 5-HT1A receptor (Homo sapiens, UniProt P08908); assay: cAMP accumulation assay, 5-HT1A function; assay type: cell-based; conditions: in brackets after EC50 or IC50
This listing pairs molecules with measured 5-HT1A Function cAMP (Emax).
Answer in %, number only, no unit symbol.

Take a look at these entries with their results.
CC(CCc1c[nH]c2ccc(F)cc12)N(CC1CC1)C1COc2c(F)ccc(C(N)=O)c2C1 (single isomer, unassigned; (+)) [Compound 15b]
73
CCCN(CCCc1c[nH]c2ccc(F)cc12)C1CCc2c(F)ccc(OC)c2C1 (single isomer, unassigned; (-)) [Compound 51b]
0
NC(=O)c1ccc(F)c2c1CC(N(CC1CCc3[nH]c4ccc(F)cc4c3C1)C1CCC1)CO2 (single isomer, unassigned; (-)) [Compound 174d]
0
CCN(C(C)CCc1c[nH]c2ccc(F)cc12)C1COc2c(F)ccc(C(N)=O)c2C1 (single isomer, unassigned; (-)) [Compound 16a]
0

# input Fill blank: measured 5-HT1A Function cAMP (Emax) of the molecule CCCN(C(C)CCc1c[nH]c2ccc(C#N)cc12)C1COc2c(F)ccc(C(N)=O)c2C1 (single isomer, unassigned) [Compound 13c] is ____.
# output 0

# input For CCCN(CCCc1c[nH]c2ccc(F)cc12)C1COc2c(F)ccc(C(N)=O)c2C1 (single isomer, unassigned; (+)) [Compound 2b] , what is its reported 5-HT1A Function cAMP (Emax)?
# output 97
